Measured pIC50 of individual entries
# TESTED TARGET: Cytochrome b (Candida albicans)
# Sequence (I2BJW5 whole entry): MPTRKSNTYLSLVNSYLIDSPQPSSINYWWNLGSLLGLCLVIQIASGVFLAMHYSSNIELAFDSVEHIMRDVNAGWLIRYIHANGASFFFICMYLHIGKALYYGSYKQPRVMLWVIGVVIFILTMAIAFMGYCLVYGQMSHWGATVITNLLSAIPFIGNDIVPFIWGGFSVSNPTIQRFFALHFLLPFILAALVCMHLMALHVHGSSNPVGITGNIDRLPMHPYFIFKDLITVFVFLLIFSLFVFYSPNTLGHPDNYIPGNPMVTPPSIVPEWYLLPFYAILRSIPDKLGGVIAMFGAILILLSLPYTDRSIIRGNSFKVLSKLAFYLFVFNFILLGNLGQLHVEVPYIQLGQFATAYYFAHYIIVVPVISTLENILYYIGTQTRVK
pIC50: −log10 of the molar value.

Worked examples, 2 compounds total:
| COMPOUND | pIC50 |
| --- | --- |
| c1ccc(-c2nn(Cc3ccccn3)c3ccccc23)cc1 | < 4.19 |
| FC(F)Cn1nc(-c2ccccc2)c2ccccc21 | < 4.19 |

IN: Report pIC50 from Cytochrome b (Candida albicans) testing of COC(=O)Cn1nc(-c2ccccc2C#N)c2ccccc21
OUT: < 4.19

---

pIC50: −log10 of the molar value.
This document collects pIC50 values reported for Cytochrome b (Homo sapiens, UniProt P00156).

Illustrative cases are given below, each with its answer.
| COMPOUND | OBS VALUE |
| --- | --- |
| COC(=O)Cn1nc(-c2cccc(Oc3ccccc3)c2)c2ccccc21 [Inz-7] | 5.00 |
| Cn1cc(Cn2nc(-c3ccccc3)c3ccccc32)nn1 [Inz-35] | < 4.19 |
| COC(=O)Cn1nc(-c2cccc(OCCCC3CCCCC3)c2)c2ccccc21 [Inz-76] | 5.26 |

IN: # return pIC50 of COC(=O)Cn1nc(-c2cc(C(F)(F)F)ccc2F)c2c(C(F)(F)F)cccc21 [Inz-22] (system: Cytochrome b (Homo sapiens, UniProt P00156))
Sequence (P00156 whole entry): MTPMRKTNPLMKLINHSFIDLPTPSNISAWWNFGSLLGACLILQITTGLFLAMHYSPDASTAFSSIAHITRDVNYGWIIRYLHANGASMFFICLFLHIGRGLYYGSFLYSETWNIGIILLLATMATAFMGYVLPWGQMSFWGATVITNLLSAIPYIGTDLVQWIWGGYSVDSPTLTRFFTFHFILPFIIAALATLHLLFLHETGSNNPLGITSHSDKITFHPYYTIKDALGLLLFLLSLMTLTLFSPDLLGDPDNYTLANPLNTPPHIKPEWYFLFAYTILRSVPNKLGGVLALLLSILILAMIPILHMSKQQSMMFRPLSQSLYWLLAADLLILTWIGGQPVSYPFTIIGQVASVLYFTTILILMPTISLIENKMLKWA
OUT: < 4.19
